Reported values of EC50 for individual entries
# test.protocol: Inhibitory activity against TK-deficient HSV-1 (KOS) replication in E6SM cell cultures of human embryonic skin-muscle
# Assay type: functional, cell-based
# experimental.context: Human alphaherpesvirus 1, E6SM
Give just the number in µg/mL; leave the unit off.

# lookup: EC50 of NC(=O)c1ncn([C@@H]2O[C@H](CO)[C@@H](O)[C@H]2O)n1 [RIBAVIRIN]
240

What does the record list as EC50 for Nc1nc2c(ncn2COCCO)c(=O)[nH]1 [ACYCLOVIR] ?
48

For the molecule Nc1nc2c(ncn2COC(CO)CO)c(=O)[nH]1 [GANCICLOVIR] , what EC50 is on record?
2.4

If you can, please state the reported EC50 value of O=c1[nH]c(=O)n([C@H]2C[C@H](O)[C@@H](CO)O2)cc1/C=C/Br [BRIVUDINE] .
240
